# TEST_PROTOCOL: Solubility test of Gatifloxacin (Test Example 1)
# Assay type: physicochemical
# CONDITION_CONTEXT: saturated solution containing malonic acid 1 w/v %, pH 6.5, aqueous buffer, thermodynamic from solid, malonic acid 1 w/v %; pH 6.5; stirred 3 hours at room temperature; in terms of 3/2 hydrate
ENDPOINT: solubility thermodynamic at 3 h (µg/mL)
I only need the number, in µg/mL, no unit after it.

# query: solubility thermodynamic at 3 h of entry COc1c(N2CCNC(C)C2)c(F)cc2c(=O)c(C(=O)O)cn(C3CC3)c12 (racemic) [Gatifloxacin]
9300

====

# TEST_PROTOCOL: Solubility test of Gatifloxacin (Test Example 1)
# Type: physicochemical
# CONDITION_CONTEXT: saturated solution containing malonic acid 0.5 w/v %, pH 6.5, aqueous buffer, thermodynamic from solid, malonic acid 0.5 w/v %; pH 6.5; stirred 3 hours at room temperature; in terms of 3/2 hydrate
ENDPOINT: solubility thermodynamic at 3 h (µg/mL)
I only need the number, in µg/mL, no unit after it.

# query: solubility thermodynamic at 3 h of entry COc1c(N2CCNC(C)C2)c(F)cc2c(=O)c(C(=O)O)cn(C3CC3)c12 (racemic) [Gatifloxacin]
9600
